Readings of TD50 for the listed compounds
Experiment: Neurotoxicity in ip dosed albino mouse by rotarod test
Assay type: toxicity, organism-based
Conditions: in vivo
READOUT_TYPE: TD50 (mg/kg)

QUERY_SMILES	QUALIFIER	ENDPOINT_RESULT
CC(=O)N[C@H](COCCN=[N+]=[N-])C(=O)NCc1ccc(N=C=S)cc1	=	100
CC(=O)N[C@@H](CO)C(=O)NCc1ccc(N=C=S)cc1	=	30
CC(=O)N[C@@H](COCCN=[N+]=[N-])C(=O)NCc1ccccc1	>	300
C#CCOC[C@@H](NC(C)=O)C(=O)NCc1ccc(N=C=S)cc1	=	110
C#CCOC[C@H](NC(C)=O)C(=O)NCc1ccc(N=C=S)cc1	>	300
CC(=O)N[C@@H](COCCN=[N+]=[N-])C(=O)NCc1ccc(N=C=S)cc1	=	300
CC(=O)N[C@H](CO)C(=O)NCc1ccc(N=C=S)cc1	=	47
C#CCOC[C@@H](NC(C)=O)C(=O)NCc1ccccc1	=	59
CC(=O)N[C@@H](COCCN=C=S)C(=O)NCc1ccccc1	=	30
C#CCOC[C@H](NC(C)=O)C(=O)NCc1ccccc1	>	300
C#Cc1ccc(CNC(=O)[C@@H](COC)NC(C)=O)cc1	=	10
